- method.summary: NCI Yeast Anticancer Drug Screen. Data for the bub3 strain (AID 167)
- condition.summary: S. cerevisiae bub3 mutant strain, at 50.0 µM, active compounds read high
The panel holds about 79,000 compounds, 15% with a hit somewhere; the sample as a whole holds those more often.
observable: growth inhibition (%)
# output: bare number, implied unit %

molecule	unit.tag	growth inhibition
COc1ccc(/C=C2/C(=O)ON=C2C)cc1	%	88.5
O=Nc1ccc2ccccc2c1O	%	89.5

Now for another entry.
# lookup: growth inhibition of CCCCCCCCCCCC1N=C(N)N=C(N)N1c1cccc(Br)c1 (stereo not drawn)
97

###

- method.summary: NCI Yeast Anticancer Drug Screen. Data for the sgs1 mgt1 strain (AID 161);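 further: 0% = growth of cultures given vehicle only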
- condition.summary: S. cerevisiae sgs1 mgt1 strain, at 5.0 µM (retest, dose inferred, filed as 0.5)
Compounds without any hit were thinned out: in the full panel of roughly 79,000, 15% have a hit. Calls of active or inactive are those of the source. No stated cut-off is given here; in the data, active means growth inhibition above about 70%; inactive means the rest. *1 amine or outer side, *2 acyl side, *3 side chain or, on linkers, in order; H or OH if unused. Where a SMILES comes first, the peptide text is derived from it. Bridges are numbered along the chain shown (N, C = ends). Roman numbers before positions name the chains, in order. [ ]: non-standard residue; d: D form. The star is where a group is joined. Actinocin(1to9) = Cc1c2oc3c(C)ccc(C(=O)[*:2])c3nc-2c(C(=O)[*:1])c(N)c1=O; X5 = CCC(=O)CC1CC(C)CC(C(=O)[*:2])N1[*:1]; NMeV = CN[CH](C(=O)O)C(C)C; X4 = CCCCCCCCC(C)C(=O)*; Aib = CC(C)(N)C(=O)O; X6 = CC(CN(C)CCO)N*; Sar = CNCC(=O)O
// classify into active, inactive

Use the examples below as a reference point.
molecule	label
COC1CC(C)C(OC)c2cc(O)cc(c2O)NC(=O)/C(C)=C/C=C\C(C)C(OC(N)=O)/C(C)=C\C(C)C1OC (stereo not drawn)	active
CCCCCCN(CCCCCC)CCCNc1nccc2ccccc12	inactive
c1ccc(-c2nc(N=C3N=c4ccccc4=N3)[nH]c2-c2ccccn2)nc1	inactive
CCC(C)C1NC(=O)C(NC(=O)c2c3nc4c(C(=O)NC5C(=O)NC(C(C)CC)C(=O)N6CCCC6C(=O)N(C)CC(=O)N(C)C(C(C)C)C(=O)OC5C)ccc(C)c4oc-3c(C)c(=O)c2N)C(C)OC(=O)C(C(C)C)N(C)C(=O)CN(C)C(=O)C2CCCN2C1=O (stereo not drawn) (I: TIP[Sar][NMeV] / II: TIP[Sar][NMeV]; ester I:1-I:C, II:1-II:C; linker I:N-II:N via Actinocin(1to9); configuration not given here)	inactive
CC1(O)CCCCCC1	inactive
CCCCC(CC)CNC(=O)CI (stereo not drawn)	inactive
COc1ccc2nc3cc([N+](=O)[O-])ccc3c(NNc3ccccc3)c2c1	inactive
CCCCCCCCC(C)C(=O)N1CCCC1C(=O)N1C(CC(=O)CC)CC(C)CC1C(=O)NC(C)C(=O)NC(C)(C)C(=O)NC(C)(C)C(=O)NC(C(=O)NC(C)C(=O)NC(C)(C)C(=O)NC(C)(C)C(=O)NC(C)CN(C)CCO)C(C)CC (stereo not drawn) (X4-P[X5]A[Aib][Aib]IA[Aib][Aib]-X6; configuration not given here)	active
S=c1[nH]c(=S)c2[nH]c(=S)[nH]c2[nH]1	inactive
COc1c(/C=C/C=O)cc2c(c1OC)OCO2	inactive

In this assay, the call recorded for Cc1onc(-c2ccccc2)c1C(=O)N/N=C/c1cc(Cl)cc(Cl)c1O was what?
active

In this assay, the call recorded for CNc1ncnc2nc(C)[nH]c12 was what?
inactive

In this assay, the call recorded for CCCCCCCCCCCCCCCCSC(=NCC)NCC was what?
active
